# target_of_assay: UniProt:Q96RI0
# Sequence (Q96RI0 18-385): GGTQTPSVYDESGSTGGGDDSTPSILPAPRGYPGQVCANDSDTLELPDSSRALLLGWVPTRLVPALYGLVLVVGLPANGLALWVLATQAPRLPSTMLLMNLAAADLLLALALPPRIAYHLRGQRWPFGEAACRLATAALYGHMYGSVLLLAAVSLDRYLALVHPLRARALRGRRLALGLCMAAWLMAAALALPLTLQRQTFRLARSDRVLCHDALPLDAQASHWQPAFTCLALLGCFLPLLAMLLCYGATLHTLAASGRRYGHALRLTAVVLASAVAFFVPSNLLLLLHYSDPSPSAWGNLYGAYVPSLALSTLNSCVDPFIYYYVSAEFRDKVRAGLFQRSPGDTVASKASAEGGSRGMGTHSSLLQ
# test_summary: PAR4 FLIPR assay: antagonism of agonist-peptide-induced calcium mobilization in PAR4-expressing HEK293 cells
# condition_set: H-Ala-Phe(4-F)-[…]NH2-induced intracellular calcium mobilization, 11-point curves
pIC50: −log10 of the molar value.
observation_type: pIC50

Field: example entries. Status: answers known.
Return pIC50 measured with UniProt:Q96RI0 given this compound: COc1ccc(NC(=O)OCCOc2cc3sc(-c4cc(C)cc5nc(OC)cnc45)nc3cc2F)cn1 7.82

Return pIC50 measured with UniProt:Q96RI0 given this compound: COc1cnc2c(-c3nc4cc(F)c(OC[C@@H](C)OC(=O)Nc5cnc(OC[C@@H](C)O)nc5)nc4s3)cc(C)cc2n1 8.35

A: COC(=O)c1cc(NC(=O)OCCOc2cc3sc(-c4cc(C)cc5nc(OC)cnc45)nc3c(Cl)c2F)cn1C
B: Cc1cc(-c2cc3ccccc3o2)c2ncc(OC(F)F)nc2c1
C: COc1cnc2c(-c3nc4cc(F)c(O[C@@H](C)[C@@H](C)OC(=O)Nc5ccc(CC(C)(C)O)nc5)nc4s3)cc(C)cc2n1
List these items ordered by pIC50, big to small. Order the labels as requested and give them as your answer. C, A, B

I: COCc1cnc2c(-c3nc4c(C)cc(Cl)nc4s3)cc(C)cc2n1
II: COC(=O)c1ccc(NC(=O)O[C@H](C)[C@H](C)Oc2nc3sc(-c4cc(C)cc5nc(OC)cnc45)nc3cc2F)cn1
Choose between I and II : whose measured pIC50 value is numerically larger? In your reply, give the label of the chosen option. II
